target: LXRβ (Homo sapiens (Human)); experiment: Nuclear hormone receptor selectivity assay (GAL4-NHR-LBD luciferase, HEK293); conditions: agonist mode
Sequence (P55055 222-460): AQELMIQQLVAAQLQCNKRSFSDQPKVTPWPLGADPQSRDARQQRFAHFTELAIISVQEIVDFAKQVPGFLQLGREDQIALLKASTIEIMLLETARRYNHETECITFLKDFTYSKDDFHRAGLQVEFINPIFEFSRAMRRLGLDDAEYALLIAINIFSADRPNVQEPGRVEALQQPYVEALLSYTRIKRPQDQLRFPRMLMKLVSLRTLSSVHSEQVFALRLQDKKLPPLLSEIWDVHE
pEC50: −log10 of the molar value.
Measured Metric: pEC50

Looking up O=C(O)[C@@H]1CC=C(c2nn(C(=O)c3c(Cl)cccc3C3(C(F)(F)F)CC3)c3c2CC[C@@H](C(=O)N2CCC4(COC4)C2)C3)CC1 [Test Compound] , I found its pEC50 recorded as < 5.00

---

molecular target: TRα (Homo sapiens (Human)); assay: Nuclear hormone receptor selectivity assay (GAL4-NHR-LBD luciferase, HEK293); conditions: antagonist mode, reference agonist at EC80
Sequence (P10827 other isoform, or with tags, fused parts or gaps isoform P10827-2): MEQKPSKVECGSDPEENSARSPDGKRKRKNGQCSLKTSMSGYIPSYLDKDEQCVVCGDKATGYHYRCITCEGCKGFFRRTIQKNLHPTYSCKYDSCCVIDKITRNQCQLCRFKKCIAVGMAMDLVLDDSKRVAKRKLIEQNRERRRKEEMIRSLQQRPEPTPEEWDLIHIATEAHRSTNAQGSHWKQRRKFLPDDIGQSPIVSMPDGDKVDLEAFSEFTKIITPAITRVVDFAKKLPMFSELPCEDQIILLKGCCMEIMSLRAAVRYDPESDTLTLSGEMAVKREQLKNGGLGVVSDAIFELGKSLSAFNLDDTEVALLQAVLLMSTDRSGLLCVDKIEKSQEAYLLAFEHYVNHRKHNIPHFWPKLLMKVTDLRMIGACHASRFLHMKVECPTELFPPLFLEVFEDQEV
Measured Metric: pIC50
Lab note — pIC50 values are minus log10 of concentrations in M.

pIC50 for TRα (Homo sapiens (Human)) with input O=C(O)[C@@H]1CC=C(c2nn(C(=O)c3c(Cl)cccc3C3(C(F)(F)F)CC3)c3c2CC[C@@H](C(=O)N2CCC4(COC4)C2)C3)CC1 [Test Compound] equals 4.80
